Where do the numbers come from? From PubChem BioAssay.

# ASSAY PROTOCOL: S. cerevisiae growth modulation with rapamycin, primary screen, strain BY4716, OD600, 96 h (AID 1091); also: test concentration not given here
# STUDY CONDITIONS: higher = more signal, called active from +8 up or from −8 down
Values of z-score greater than or equal to -0.07 map to satisfied; values below map to not satisfied.

COMPOUND	CATEGORY LABEL
CN1C(=O)C2C=CC(C(O)c3ccc(I)cc3)N(Nc3ccccc3)C2C1=O (configuration not stated)	satisfied
NC(=O)NCC#Cc1ccc2c(c1)[C@]1(C(=O)N2)[C@H](C(=O)N2CCN(c3ncccn3)CC2)[C@H]2C(=O)O[C@H](c3ccccc3)[C@H](c3ccccc3)N2[C@@H]1c1ccc(OCCO)cc1	satisfied
COCCOC(=O)N1C(=O)[C@@]2(c3cc(C#Cc4ccc(OC)cc4)ccc31)[C@H](C(=O)NC[C@H](O)c1ccccc1)[C@H]1C(=O)O[C@H](c3ccccc3)[C@H](c3ccccc3)N1[C@@H]2c1ccc(OCCO)cc1	satisfied
CC(C)C(=C=CC[C@@H](O)c1cccc(OCCO)c1)C[C@@H](O)c1ccccn1	not satisfied
C=C(COC)/C(=C/C[C@H](OC(C)=O)c1cccc(OCCO)c1)c1cnc2ccccc2c1	satisfied
O=C1N(CCS(=O)(=O)c2ccccc2)Cc2ccccc2[C@@H]2OC(c3ccc(OCCCO)cc3)=N[C@]12CCS(=O)(=O)c1ccccc1	satisfied
[N-]=[N+]=NCc1ccccc1[C@@H]1OC(c2ccc(OCCCO)cc2)=N[C@]1(Cc1ccccc1N=[N+]=[N-])C(=O)NCCN1CCOCC1	not satisfied
O=C(CS)NCCCCCCNC(=O)[C@@H]1C[C@@H]2C(=O)NCC(=O)N2[C@@H]1c1ccc(O)cc1	not satisfied
COCCOC(=O)N1C(=O)[C@@]2(c3cc(C#CCNC(N)=O)ccc31)[C@H](c1ccc(O)cc1)N1[C@H](c3ccccc3)[C@H](c3ccccc3)OC(=O)[C@H]1[C@@H]2C(=O)N1CCN(c2ncccn2)CC1	satisfied
COCCOC(=O)N1C(=O)[C@@]2(c3cc(C#CC4(O)CCCCCC4)ccc31)[C@H](c1ccc(OCCO)cc1)N1[C@H](c3ccccc3)[C@H](c3ccccc3)OC(=O)[C@H]1[C@@H]2C(=O)Nc1nc2ccccc2s1	satisfied
COCC(=C=CC[C@@H](O)c1cccc(OCCO)c1)CCO	satisfied
COC(=O)[C@@]1(Cc2ccc(F)cc2)[C@H]2c3cc(C(=O)N4CCCC4)n(CC4CC4)c3C[C@H]2CN1C(=O)c1ccccc1	satisfied
Cc1nc2cc(Br)ccc2c(=O)n1Cc1cccc(O)c1	not satisfied
CCN(CC)c1ccc(N2CC=CC34O[C@@H]5/C=C\CCC(C)OC(=O)C5[C@H]3C(=O)N(C(C)CO)[C@@H]4C2=O)cc1 (some centres not stated)	not satisfied
O=C1[C@@]23C=C(Br)[C@H](C[C@@H]2COC3)[C@@]12CO2	satisfied
O=C1[C@@H]2[C@@H](CC(COc3ccccc3)=C3[C@@H](CCc4ccccc4)OB(O)C[C@@H]32)C(=O)N1Cc1ccccc1	satisfied

* * *

Let's look at some molecules and their measured z-score.
# ASSAY PROTOCOL: S. cerevisiae growth modulation with rapamycin, primary screen, strain BY4716, OD600, 96 h (AID 1091); also: test concentration not given here
# STUDY CONDITIONS: higher = more signal, called active from +8 up or from −8 down
Activity calls are given as the source filed them.

MOLECULE	z-score
COc1ccc(NC(=O)O[C@H]2[C@@H]3OC(=O)[C@H](Cc4cccc(Br)c4)C/C=C/C[C@@H](Cc4cccc(Br)c4)C(=O)O[C@H]3[C@@H](OC)O[C@@H]2CO)cc1	-0.127 (inactive)
CN(C)C(=O)[C@@]1(CCC(=O)OC(C)(C)C)N=C(c2ccc(OCCCO)cc2)O[C@H]1c1ccccc1CN=[N+]=[N-]	-1.11 (inactive)
COC(=O)[C@@]1(Cc2ccc(F)cc2)[C@H]2c3cc(C(=O)N(C)C)n(Cc4c(CO)[nH]cc(C)c4=O)c3C[C@H]2CN1C(=O)c1ccccc1	0.796 (inactive)
O=C1C2C=CC(C(O)c3ccc4c(c3)OCO4)N(Nc3ccccc3)C2C(=O)N1c1ccccc1 (stereo not given)	0.593 (inactive)
C=C(CCCC)C(=O)CC[C@@H](OC(=O)c1cccnc1)c1ccc(OCCO)cc1	-0.861 (inactive)
C=C(COC)/C(=C/C[C@@H](OC(C)=O)c1ccc(CO)o1)c1cc(C(=O)OC)ccc1OC	0.264 (inactive)
COC(=O)[C@@]1(Cc2ccc(OC)cc2)[C@H]2c3cc(C(=O)N4CCCC4)n(Cc4cc(C)n(C)n4)c3C[C@H]2CN1C(=O)c1ccccc1	0.202 (inactive)
CS(=O)(=O)CCOC(=O)C1=CC(CCCO)=CC(C2CC2)N(Cc2cccc(OC(F)(F)F)c2)C=C1C(=O)OCCS(C)(=O)=O (stereo not given)	-1.75 (inactive)
COc1ccc(CCNC(=O)[C@@]2(Cc3ccccc3I)c3ccccc3C(=O)N(Cc3ccccc3Cl)[C@H]2c2ccc(CO)cc2)cc1	-0.0387 (inactive)
COC(=O)[C@@]1(Cc2ccccc2)[C@H]2c3cc(C(=O)N(C)C)n(CCn4cc([N+](=O)[O-])nc4C)c3C[C@H]2CN1C(=O)c1ccccc1	0.253 (inactive)
[N-]=[N+]=NC[C@H](Cc1ccccc1)NC(=O)c1ccccc1	-1.27 (inactive)
COCC1=C2[C@@H](CCc3ccccc3)OB(O)C[C@@H]2[C@@H]2C(=O)N(C)C(=O)[C@@H]2C1	-0.53 (inactive)
COc1cc(NN2C(C(O)c3ccccc3)C=CC3C(=O)N(C)C(=O)C32)cc(OC)c1OC (stereo not given)	0.328 (inactive)
C#C[C@@H](CC)O[Si](C#CCCCC#N)(C(C)C)C(C)C	-3.15 (inactive)
COCCOC(=O)N1C(=O)[C@@]2(c3cc(C#CC4(O)CCCCCC4)ccc31)[C@H](C(=O)N1CCN(c3ncccn3)CC1)[C@H]1C(=O)O[C@H](c3ccccc3)[C@H](c3ccccc3)N1[C@@H]2c1ccccc1OCCO	7.55 (inactive)
CCCCCN1CC=CC23O[C@@H]4/C=C\CCC(C)OC(=O)C4[C@H]2C(=O)N(CCCCCCO)[C@@H]3C1=O (stereo not given in full)	-0.635 (inactive)
[N-]=[N+]=Nc1ccccc1C[C@]1(C(=O)NCc2ccccc2)COC(c2ccc(OCCCO)cc2)=N1	32.1 (active)
COCC(=C=CC[C@@H](O)c1ccc(OCCO)cc1)CCO	-0.18 (inactive)
COCCOC(=O)N1C(=O)[C@@]2(c3cc(C#CCNC(N)=O)ccc31)[C@H](c1ccc(OCCO)cc1)N1[C@H](c3ccccc3)[C@H](c3ccccc3)OC(=O)[C@H]1[C@@H]2C(N)=O	2.29 (inactive)
C=C(COC)C(=O)CC[C@H](OC(=O)c1cccnc1)c1ccc(CO)o1	-0.35 (inactive)
C=CCNC(=O)[C@@H]1[C@H]2C(=O)O[C@H](c3ccccc3)[C@H](c3ccccc3)N2[C@H](c2ccc(O)cc2)[C@@]12C(=O)Nc1ccc(C#CCC(C(=O)OC)C(=O)OC)cc12	1.12 (inactive)
O=C1C2C=CC(C(O)c3cc(C(F)(F)F)cc(C(F)(F)F)c3)N(Nc3ccccc3F)C2C(=O)N1c1ccccc1 (stereo not given)	6.9 (inactive)
CN(C)C(=O)[C@]1(CCS(=O)(=O)c2ccccc2)N=C(c2ccc(OCCCO)cc2)O[C@@H]1c1ccccc1	4.54 (inactive)
COC(=O)[C@@]1(Cc2ccc(OC)cc2)[C@H]2c3cc(C(=O)N4CCCC4)n(Cc4ccc(OC(F)(F)F)cc4)c3C[C@H]2CN1C(=O)c1ccccc1	3.21 (inactive)
C[C@]1(C(=O)O)c2ccccc2C(=O)N(Cc2ccc(OC(F)(F)F)cc2)[C@H]1c1ccc(CO)cc1	-0.686 (inactive)

* * *

# ASSAY PROTOCOL: E. coli acrAB mutant growth effects, primary screen, E. coli filamentation inducers, strain DRC39, OD650, 48 h (AID 1179);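 also: screen aims at cell division blockers that make cells filament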
# STUDY CONDITIONS: E. coli DRC39 delta-acrAB growth, higher = more signal, called active from +8 up or from −8 down
RECORDED ENDPOINT: z-score

MOLECULE	RECORDED VALUE
CO[C@H]1O[C@H](CO)[C@@H](OC(=O)Nc2ccc(C#N)cc2)[C@@H]2OC(=O)[C@H](Cc3cccc(Br)c3)C/C=C/C[C@@H](Cc3cccc(Br)c3)C(=O)O[C@@H]12	0.432
C=C[C@@H](OC)[C@H](OC(=O)Nc1ccc(SC)cc1)c1ccc(OCCO)cc1	-1.5
C=C[C@H](C)[C@H](OC(=O)Nc1ccc(OC)cc1)c1ccc(OCCO)cc1	0.465
CCN(CC)c1ccc(N2CC=CC34O[C@@H]5/C=C\CCC(C)OC(=O)C5[C@H]3C(=O)N(C(C)CO)[C@@H]4C2=O)cc1 (stereo partly specified)	1.39
[N-]=[N+]=Nc1ccccc1C[C@]1(C(=O)O)N=C(c2ccc(OCCCO)cc2)O[C@H]1c1ccccc1	-0.0225
COC(=O)C1=CC(CCCO)=CC(c2ccc(CN3CCCC3)cc2)N(Cc2cc3c(cc2Br)OCO3)C=C1C(=O)OC (stereo unspecified)	0.67
